system: NCI-H226 lung; test: NCI tumour cell line growth inhibition, 48 h
Record form. Attribute: GI50. Fill in for each entry.

Known GI50 results, listed for orientation:
COMPOUND: Cn1c(COC(=O)NCCn2ccnc2)nc2c(N3CCOCC3)nc(-c3ccccc3)nc21
GI50: 1.72 µM
//
COMPOUND: O=C(Nc1n[nH]c2cc(-c3cc(F)ccc3F)ccc12)C1CC1
GI50: 18.4 µM
//
COMPOUND: Cc1ccc(/C(=N/Nc2ccc([N+](=O)[O-])cc2)Sc2cc(Cl)c(C)cc2S(N)(=O)=O)cc1
GI50: 1.64 µM
//
COMPOUND: CN1CCN(C2=NC(=O)/C(=C\c3ccc(N(C)C)cc3)S2)CC1
GI50: > 100 µM
//
COMPOUND: CCCCNC(c1ccc(Cl)cc1)C(O)c1ccc(Cl)cc1 (centres undefined)
GI50: 6.58 µM

Would you be so kind as to report GI50 for each listed record?
1. NC(N)=N/N=C\c1ccc(OCc2ccccc2)cc1
2. COc1cc(C2CC(c3ccc(Nc4nc(NCCO)nc(NCCO)n4)cc3)=NN2c2cc(Cl)cc(Cl)c2)cc(OC)c1OC (centres undefined)
3. COc1ccc2[nH]c(C(=O)N3CCN(C(=O)OCc4ccc5c(Cl)cc(Cl)c(O)c5n4)CC3)cc2c1
4. CC(C)C[C@@H](N)[C@@H](O)C(=O)N[C@H](C(=O)N[C@H](C(=O)N[C@@H](CC(=O)O)C(=O)O)C(C)C)C(C)C

1. 4.87 µM
2. 3.85 µM
3. 1.18 µM
4. > 20 µM

====

system: NCI-H226 lung; assay: NCI tumour cell line growth inhibition, 48 h
EXPERIMENTAL_ENDPOINT: TGI

Known TGI results, listed for orientation:
COMPOUND: Cc1ccccc1NC(=O)O/N=C(\Cl)C(C)C
RESULT: 30.7 µM
//
COMPOUND: Cc1cc(=O)[nH]c(NNC(C#N)c2cccc([N+](=O)[O-])c2)n1 (stereo not given)
RESULT: > 100 µM
//
COMPOUND: O=S(=O)(NC1=NCCN1C(=S)SN1CCn2c1nsc2=S)c1ccc(Cl)cc1
RESULT: 20.7 µM
//
COMPOUND: CC(C)(C)C[C@H]1N[C@@H](C(=O)NC2CCC(O)CC2)[C@H](c2cccc(Cl)c2F)[C@@]12C(=O)Nc1cc(Cl)ccc12 (stereo not given in full)
RESULT: 1.04 µM
//
COMPOUND: C/C(=N/NC(=S)Nc1ccccc1)c1nc2ccc(Cl)cc2[nH]1
RESULT: 0.925 µM

Would you be so kind as to report TGI for each listed record?
1. COc1ccc(CCNC(=O)Cc2ccccc2CO)cc1OC
2. Cc1ccc(/C(=N/Nc2ccc([N+](=O)[O-])cc2)Sc2cc(Cl)c(C)cc2S(N)(=O)=O)cc1
3. N#Cc1nc(CCc2nc(C#N)c(N)o2)oc1N
4. Cn1/c(=N\N=C2\C=C3CCCCC3(C)CC2)sc2ccccc21 (stereo not given)

> 100 µM
3.57 µM
> 10 µM
> 100 µM

O=S(=O)(Nc1nc2ccccc2nc1N1CCCCCC1)c1ccccc1 has a reported TGI of > 100 µM

====

Record form. Attribute: TGI. Fill in for each entry.
system: OVCAR-5 ovarian; test: NCI tumour cell line growth inhibition, 48 h
Give bare numbers, in µM.

Would you be so kind as to report TGI for each listed record?
1. CCCCNC(c1ccc(Cl)cc1)C(O)c1ccc(Cl)cc1 (stereo unspecified)
2. CSc1nc(Nc2cccc(NC(=O)CCl)c2)c(C#N)c(-c2cccc([N+](=O)[O-])c2)n1
3. COc1ccc(-n2c(=S)sc3c(Cl)nc(C)nc32)c(OC)c1
4. CCCCCCCC/C=C/CCCCCCCC1=NC(C)(C)CN1C(C)(C)CO
5. NC(N)=N/N=C\c1ccc(OCc2ccccc2)cc1

1: 15.7; 2: 6.13; 3: 20.9; 4: 5.09; 5: 15.5

====

Record form. Attribute: TGI. Fill in for each entry.
system: MOLT-4 leukemia; assay: NCI tumour cell line growth inhibition, 48 h
Numbers only, in µM.

Known TGI results, listed for orientation:
COMPOUND: CC(=O)Nc1ccc(C2CC(c3ccc([N+](=O)[O-])cc3)=Nc3ccccc3S2)cc1 (stereo not given)
TGI, µM: 39.6
//
COMPOUND: Oc1ccc(Cl)cc1C=Nc1cnc2ccccc2c1
TGI, µM: 47.2
//
COMPOUND: COc1cc2c(/C=C3/C(=O)Nc4ccccc43)c(Cl)n(Cc3ccc(Cl)cc3)c2cc1C
TGI, µM: 0.627

Shifting focus to the compound that follows.
CC(C)(C)C[C@H]1N[C@@H](C(=O)NC2CCC(O)CC2)[C@H](c2cccc(Cl)c2F)[C@@]12C(=O)Nc1cc(Cl)ccc12 (stereo not given in full) has a reported TGI of 1.81

====

test system: SW-620 colon; assay: NCI tumour cell line growth inhibition, 48 h
Record form. Attribute: TGI. Fill in for each entry.

Known TGI results, listed for orientation:
COMPOUND: COC(=O)c1c2c(cc3c1CC1(Cc4cc5c(c(C=O)c4C1)CCC5)C3)CCC2 (stereo unspecified)
TGI: > 100 µM

COMPOUND: O=C(O)CSC(CC(=O)c1ccc(Cl)cc1)c1ccc(Cl)cc1 (stereo unspecified)
TGI: > 100 µM

COMPOUND: COc1nc(Cl)nc(N[C@H](C)c2c3ccccc3cc3ccccc23)n1
TGI: 28.8 µM

COMPOUND: CCOC(=O)Nc1ccc2nc(-c3cscn3)[nH]c2c1
TGI: > 100 µM

COMPOUND: C[C@@]1(F)[C@H](O)[C@@H](CO)O[C@H]1n1ccc(=O)[nH]c1=O
TGI: > 100 µM

Clc1ccc2c(c1)N(CCCN1CCCC13CCCCC3)c1ccccc1S2 has a reported TGI of 40.7 µM

====

tested on: SNB-75 CNS; experiment: NCI tumour cell line growth inhibition, 48 h; in the data active means GI50 below about 0.43 µM; inactive means the rest
The categories you may choose from are active, inactive

Example results:
MOLECULE: CC(C)(C)C[C@H]1N[C@@H](C(=O)NC2CCC(O)CC2)[C@H](c2cccc(Cl)c2F)[C@@]12C(=O)Nc1cc(Cl)ccc12 (some centres not stated)
CAT: inactive

MOLECULE: COC1=CC(c2ccc[nH]2)=N/C1=C\c1[nH]c(C)c(C(=O)CCCCCCCCC(=O)O[C@H]2CC[C@H]3C4CCc5cc(O)ccc5C4CC[C@]23C)c1C (some centres not stated)
CAT: active

MOLECULE: Cn1c(COC(=O)NCCn2ccnc2)nc2c(N3CCOCC3)nc(-c3ccccc3)nc21
CAT: inactive

MOLECULE: CC1(C)CC(C)(C)c2cc(NC(=S)Nc3ccc([N+](=O)[O-])cc3)ccc2S1
CAT: inactive

Test call for this molecule, please: C[C@@]1(F)[C@H](O)[C@@H](CO)O[C@H]1n1ccc(=O)[nH]c1=O
inactive

Test call for this molecule, please: O=C1C(=O)c2c(nc3ccc(C(F)(F)F)cn23)-c2ccccc21
active

Test call for this molecule, please: C[C@@H]1C[C@@H]([C@H](O)CC2CC(=O)NC(=O)C2)C(=O)[C@@H](C)C1
active

Test call for this molecule, please: O=C(Nc1sc2c(c1C(=O)O)CCCC2)c1ccco1
inactive

Test call for this molecule, please: CCN(CC)C(=S)SSC(C)C
inactive

Test call for this molecule, please: CC1=NN(c2cccc(Cl)c2)C(=O)/C1=C\c1cn(CC(O)CN2CCCCC2)c2ccccc12 (configuration not stated)
inactive

Test call for this molecule, please: COc1cc(C2CC(c3ccc(Nc4nc(NCCO)nc(NCCO)n4)cc3)=NN2c2cc(Cl)cc(Cl)c2)cc(OC)c1OC (configuration not stated)
inactive

Test call for this molecule, please: NC(N)=N/N=C\c1ccc(OCc2ccccc2)cc1
inactive

====

tested on: HOP-62 NSCLC; test: NCI tumour cell line growth inhibition, 48 h; in the data active means GI50 below about 0.43 µM; inactive means the rest
The categories you may choose from are active, inactive

Example results:
COMPOUND: COC1=CC(c2ccc[nH]2)=N/C1=C\c1[nH]c(C)c(C(=O)CCCCCCCCC(=O)O[C@H]2CC[C@H]3C4CCc5cc(O)ccc5C4CC[C@]23C)c1C (stereo not given in full)
CAT: inactive

COMPOUND: COc1cc2c(cc1C)NC(=O)/C2=C/c1ccnc2ccccc12
CAT: inactive

COMPOUND: Cc1cccc(N2C(=O)/C(=C/C(Cl)=C/c3ccc([N+](=O)[O-])cc3)SC2=S)c1C
CAT: inactive

COMPOUND: O=C1C(=O)c2c(nc3ccc(C(F)(F)F)cn23)-c2ccccc21
CAT: active

Test call for this compound, please: COc1ccc(-n2c(=S)sc3c(Cl)nc(C)nc32)c(OC)c1
inactive

====

tested on: LOX IMVI melanoma; assay: NCI tumour cell line growth inhibition, 48 h
TGI of 30 µM or higher: criterion met. Under 30 µM: criterion not met.

COMPOUND: O=S(=O)(NC1=NCCN1C(=S)SN1CCn2c1nsc2=S)c1ccc(Cl)cc1
ASSAY_TARGET: LOX IMVI melanoma
CAT: criterion not met
//
COMPOUND: O=C1[C@@H]2[C@@H](CN3CN(c4ccccc4)N=C(c4ccccc4)[C@@]23c2ccccc2)C(=O)N1c1ccccc1
ASSAY_TARGET: LOX IMVI melanoma
CAT: criterion not met
//
COMPOUND: COc1nc(Cl)nc(N[C@H](C)c2c3ccccc3cc3ccccc23)n1
ASSAY_TARGET: LOX IMVI melanoma
CAT: criterion met

State whether the measured TGI reaches 30 µM, counting equality as reaching it, for COC(=N)C1(C#N)NC(c2ccsc2)C(C#N)(C#N)NC1c1ccsc1 (stereo not drawn)
criterion met

State whether the measured TGI reaches 30 µM, counting equality as reaching it, for N#C/C(=C\c1ccc2[nH]ccc2c1)C(=O)NCCCCNC(=O)/C(C#N)=C/c1ccc2[nH]ccc2c1
criterion met

State whether the measured TGI reaches 30 µM, counting equality as reaching it, for CC(C)(C)C#COC(=O)c1ccccc1
criterion met

State whether the measured TGI reaches 30 µM, counting equality as reaching it, for CC(=O)Nc1ccc(C2CC(c3ccc([N+](=O)[O-])cc3)=Nc3ccccc3S2)cc1 (stereo not drawn)
criterion met
